Tested on: SF-295 CNS
Experiment Notes: NCI tumour cell line growth inhibition, 48 h
Property Measured: TGI

Input line: # lookup: TGI of "C[C@]12CC/C(=N\N)C[C@@H]1CC[C@@H]1[C@@H]2CC[C@]2(C)/C(=N/N)CC[C@@H]12"
Output line: > 100 µM

Input line: # lookup: TGI of CCOC(=O)C(NC(=O)CC(C)C)(Nc1ccc(C(F)(F)F)cc1)C(F)(F)F (stereo not given)
Output line: > 100 µM

Input line: # lookup: TGI of "C=CCN(c1cc(OCc2ccccc2)c(NC(C)=O)cc1[N+](=O)[O-])S(C)(=O)=O"
Output line: 60.4 µM

Input line: # lookup: TGI of "COC(=O)c1ccc(CCc2cc(O)ccc2O)cc1"
Output line: > 70.5 µM

Input line: # lookup: TGI of "CCN(CC)c1ccc(N=C2C=C(C(=O)Nc3ccc(S(C)(=O)=O)cc3)C(=O)c3ccccc32)c(C)c1"
Output line: 39.5 µM

Input line: # lookup: TGI of COc1ccc(C(O)c2cc3c(N)c(C(=O)Nc4cccc(Cl)c4C)sc3nc2C)cc1 (stereo not given)
Output line: 1.66 µM

Input line: # lookup: TGI of "OCCCCC#Cc1ccccc1C#Cc1ccccc1F"
Output line: 42.7 µM

Input line: # lookup: TGI of CSc1nc(NC2OCC(O)C(O)C2O)c(N)c(=O)n1C (stereo not given)
Output line: > 100 µM

Input line: # lookup: TGI of Oc1ccc2c(c1)CC[N+]1=C2CCC2CCCC21 (stereo not given)
Output line: > 100 µM

Input line: # lookup: TGI of "CC(C)[C@H]1NC(=O)[C@H]2N=C(O[C@@H]2C)[C@@H]2CCCN2C(=O)[C@H](Cc2ccccc2)NC(=O)[C@@H]2CSC(=N2)[C@@H](Cc2ccccc2)NC(=O)[C@@H]2CSC1=N2"
Output line: > 100 µM

Input line: # lookup: TGI of "COC(=O)/C=C\C(C#N)(C#N)N=Cc1ccc(C)s1"
Output line: 31.8 µM

Input line: # lookup: TGI of "O=c1[nH]c(-c2ccccc2)nc2ccc(Cl)cc12"
Output line: > 100 µM

Input line: # lookup: TGI of NC1CCCCC1N.O=C([O-])P(=O)([O-])[O-].[Na+].[Pt+4] (stereo not given)
Output line: > 100 µM

Input line: # lookup: TGI of "O=c1[nH]c2cc3cccnc3c(Cl)c2nc1C(F)(F)F"
Output line: > 100 µM

Input line: # lookup: TGI of O=S1(=O)N(Cc2ccccc2)[C@@H](Cc2ccccc2)C2O[C@H]2[C@H](Cc2ccccc2)N1Cc1ccccc1 (stereo not given in full)
Output line: > 7.5 µM

Input line: # lookup: TGI of "C[N+](C)([O-])CCCNc1c2ccccc2nc2cccc([N+](=O)[O-])c12"
Output line: 15 µM

Input line: # lookup: TGI of "Cc1[nH]c(C(=O)Nc2ccc(C(=O)N3CCNCC3)cc2OC(C)C)c(Cl)c1Cl"
Output line: 3.68 µM

Input line: # lookup: TGI of "CCc1nn(S(=O)(=O)c2ccc(C)cc2)c2c1CS(=O)(=O)CC2"
Output line: > 100 µM

Input line: # lookup: TGI of "Nc1ccc(-c2nc3cc(F)ccc3s2)cc1I"
Output line: > 56.6 µM

Input line: # lookup: TGI of "O=C1CSC2=NCC3(NN12)c1ccccc1-c1ccccc13"
Output line: > 10 µM

* * *

Test system: HL-60(TB) leukemia
Experiment Notes: NCI tumour cell line growth inhibition, 48 h
Property Measured: TGI

Input line: API: value(readout=TGI, system=HL-60(TB) leukemia) for record "COc1ccc(Oc2nc3ccc(C(F)(F)F)cc3nc2-c2ccccc2)cc1"
Output line: > 100 µM

Input line: API: value(readout=TGI, system=HL-60(TB) leukemia) for record "COc1cc(N=Nc2ccccc2)cc(/C=N\[N-]C(N)=S)c1[O-].COc1cc(N=Nc2ccccc2)cc(/C=N\[N-]C(N)=S)c1[O-].[Fe+4]"
Output line: > 100 µM

Input line: API: value(readout=TGI, system=HL-60(TB) leukemia) for record O=C(NC1(C(=O)NNc2nnc(-c3ccccc3)c(-c3ccccc3)n2)C(c2ccccc2)C(c2ccccc2)=NN1c1ccccc1)c1ccccc1 (stereo not given)
Output line: > 100 µM

Input line: API: value(readout=TGI, system=HL-60(TB) leukemia) for record "C[C@]12CC/C(=N\N)C[C@@H]1CC[C@@H]1[C@@H]2CC[C@]2(C)/C(=N/N)CC[C@@H]12"
Output line: > 100 µM

Input line: API: value(readout=TGI, system=HL-60(TB) leukemia) for record CCCCCCCCCCCCCCCC(=O)OCC1OC(n2cnc3c(=S)nc(N)[nH]c32)C(OC(=O)CCCCCCCCCCCCCCC)C1OC(=O)CCCCCCCCCCCCCCC (stereo not given)
Output line: > 50 µM

Input line: API: value(readout=TGI, system=HL-60(TB) leukemia) for record "N#Cc1cccc(C(=O)c2cnn(-c3ccc(F)cc3)c2N)c1"
Output line: > 25 µM

Input line: API: value(readout=TGI, system=HL-60(TB) leukemia) for record O=C1CCC2CCc3cccc4oc1c2c34 (stereo not given)
Output line: > 100 µM

Input line: API: value(readout=TGI, system=HL-60(TB) leukemia) for record "S=c1nc2[nH]c3ccc(Br)cc3c2n[nH]1"
Output line: 50.5 µM

Input line: API: value(readout=TGI, system=HL-60(TB) leukemia) for record "O=C1c2ccccc2-c2nccc3cc(Cl)nc1c23"
Output line: > 100 µM

Input line: API: value(readout=TGI, system=HL-60(TB) leukemia) for record "c1cc(C2CCCCC2)ccc1OCCCCCCN1CCNCC1"
Output line: 3.32 µM

Input line: API: value(readout=TGI, system=HL-60(TB) leukemia) for record "O=C(NCCCCNCCCNC(=O)c1ccccc1)c1ccccc1"
Output line: > 100 µM

Input line: API: value(readout=TGI, system=HL-60(TB) leukemia) for record CCOC(=O)C(=O)C1C(=O)Nc2ccccc21 (stereo not given)
Output line: > 100 µM

Input line: API: value(readout=TGI, system=HL-60(TB) leukemia) for record "Cn1cc(NC(=O)c2cc(NC(=O)Nc3cc(C(=O)Nc4cc(C(=O)NCCC(=N)N)n(C)c4)n(C)c3)cn2C)cc1C(=O)NCCC(=N)N"
Output line: > 100 µM

Input line: API: value(readout=TGI, system=HL-60(TB) leukemia) for record "Cc1ccc(-n2c(O)c3c(N)n[nH]c3c(C#N)c2=O)cc1"
Output line: > 100 µM

Input line: API: value(readout=TGI, system=HL-60(TB) leukemia) for record "CCNC(=O)/C=C/CCC#Cc1ccc(-c2ccc(-c3cccs3)s2)s1"
Output line: > 100 µM

Input line: API: value(readout=TGI, system=HL-60(TB) leukemia) for record "COc1ccc(C[C@H](N)C(=O)N2C[C@H](CO)C[C@H](n3cnc4c(N(C)C)ncnc43)C2)cc1"
Output line: > 100 µM

Input line: API: value(readout=TGI, system=HL-60(TB) leukemia) for record "Cc1nc2cncc(C#Cc3cncc(C(=O)Nc4ccc(CN5CCN(C)CC5)c(C(F)(F)F)c4)c3)c2nc1C"
Output line: 1.38 µM

Input line: API: value(readout=TGI, system=HL-60(TB) leukemia) for record CC1CCc2c(sc3ncnc(N/N=C/c4ccc(Cl)c(Cl)c4)c23)C1 (stereo not given)
Output line: > 100 µM

Input line: API: value(readout=TGI, system=HL-60(TB) leukemia) for record "O=Nc1c(-c2cccc([N+](=O)[O-])c2)nc2cnccn12"
Output line: > 100 µM

Input line: API: value(readout=TGI, system=HL-60(TB) leukemia) for record "COc1ccc2c(c1)nc1n2C(N)=Nc2ccccc2S1"
Output line: 6.95 µM

* * *

Test system: HOP-62 NSCLC
Experiment Notes: NCI tumour cell line growth inhibition, 48 h
Where a SMILES comes first, the peptide text is derived from it. [ ]: non-standard residue; d: D form. The star is where a group is joined. ξ: configuration not given here. ξD = NC(CC(=O)O)C(=O)O; Ac3c = NC1(C(=O)O)CC1; Boc = CC(C)(C)OC(=O)*; OBn = c1ccc(CO*)cc1
Please mark y if the recorded TGI is equal to or greater than 5 µM, and n if it falls below.

Input line: Quick check, TGI >= 5 µM? "COc1ccc2c(c1)nc1n2C(N)=Nc2ccccc2S1"
Output line: y

Input line: Quick check, TGI >= 5 µM? "Cc1[nH]c(C(=O)Nc2ccc(C(=O)N3CCNCC3)cc2OC(C)C)c(Cl)c1Cl"
Output line: n

Input line: Quick check, TGI >= 5 µM? O=C(NC1(C(=O)NNc2nnc(-c3ccccc3)c(-c3ccccc3)n2)C(c2ccccc2)C(c2ccccc2)=NN1c1ccccc1)c1ccccc1 (centres undefined)
Output line: y

Input line: Quick check, TGI >= 5 µM? "Cn1cc(NC(=O)c2cc(NC(=O)Nc3cc(C(=O)Nc4cc(C(=O)NCCC(=N)N)n(C)c4)n(C)c3)cn2C)cc1C(=O)NCCC(=N)N"
Output line: y

Input line: Quick check, TGI >= 5 µM? "O=[N+]([O-])c1cc(O)c(O)cc1-c1cn2ccsc2n1"
Output line: y

Input line: Quick check, TGI >= 5 µM? "O=C(c1ccccc1)c1c(C(F)(F)F)n([O-])c2cc(Cl)c(Cl)cc2[n+]1=O"
Output line: n

Input line: Quick check, TGI >= 5 µM? "C=CC(C)(C)N[C@@H](C(=O)N1CCC[C@H]1c1nc(-c2nc(C(=O)OCC=C(C)C)c(C)o2)c(C)o1)C(C)C"
Output line: y

Input line: Quick check, TGI >= 5 µM? "Cn1c(=O)c(Oc2cccc(F)c2)cc2cnc(NC3CCOCC3)nc21"
Output line: y

Input line: Quick check, TGI >= 5 µM? O=C1CCC2(CC1CCSc1ccccc1)OCCO2 (centres undefined)
Output line: y

Input line: Quick check, TGI >= 5 µM? "COc1ccc(Nc2ccnc(NCCNc3ccnc4cc(Cl)ccc34)n2)cc1"
Output line: y

Input line: Quick check, TGI >= 5 µM? "O=C(NNc1cn[nH]c(=O)c1Cl)/C(=C/c1ccc2c(c1)OCO2)NC(=O)c1ccccc1"
Output line: y

Input line: Quick check, TGI >= 5 µM? "Cc1ccc(S(=O)(=O)NC(=O)NCCC(=O)O)cc1"
Output line: y

Input line: Quick check, TGI >= 5 µM? COC(=O)C1(NC(=O)C(CC(=O)OCc2ccccc2)NC(=O)OC(C)(C)C)CC1 (centres undefined) (Boc-[ξD](OBn)-[Ac3c]-OMe)
Output line: y

Input line: Quick check, TGI >= 5 µM? "Cc1cc2c(cc1C)[n+](=O)c(C(=O)/C=C/c1ccc(Cl)cc1)c(C)n2[O-]"
Output line: y

Input line: Quick check, TGI >= 5 µM? "Nc1ccc(-c2nc3cc(F)ccc3s2)cc1I"
Output line: y

Input line: Quick check, TGI >= 5 µM? NC(c1ccccc1)(C(F)(F)F)P1(=O)OC(=O)c2ccccc2O1 (centres undefined)
Output line: y

Input line: Quick check, TGI >= 5 µM? "CS(=O)(=O)OCCN1CCN(C(=O)c2cccc3c(Nc4ccc(S(N)(=O)=O)cc4)c4ccccc4nc23)CC1"
Output line: y

Input line: Quick check, TGI >= 5 µM? "C[N+](C)([O-])CCCNc1c2ccccc2nc2cccc([N+](=O)[O-])c12"
Output line: n
